Test: MTT cytotoxicity in HaCaT
Format: cell-based, human
Details: human, HaCaT cells, 48 h, 50 μM, read-out: % Cytotoxicity w.r.t. untreated cells
Structures can show the parent of a compound that is named as a salt.
MEASUREMENT NAME: cytotoxicity at 48 h, 50 µM (%)
Express it in %; write the number only.

Enquiry: Name the recorded cytotoxicity at 48 h, 50 µM of the item COC(=O)CCc1ccc(OCC(O)CNC(C)C)cc1 (stereo not shown) [Esmolol hydrochloride] in your answer.
Return: -18.1

----------
Test: MTT cytotoxicity in Ea.hy926
Assay type: cell-based, human
Settings: human, Ea.hy926 cells; Ea.hy926, 24 h, 0.1 μM; read-out: % Cytotoxicity w.r.t. untreated cells
Method: 1. HaCaT, HFF-1 and Ea.hy926 cells were counted and plated in 96 well plates at the density corresponding to 5 X 10^3 cells/well/180 μl of cell growth medium. 2. […] 6. […] The absorbance of each well was then read at 540 nm using Synergy HT micro plate reader. 7. The percentage cytotoxicity at each tested concentration was calculated using the following formula: […]
Structures can show the parent of a compound that is named as a salt.
MEASUREMENT NAME: cytotoxicity at 24 h, 0.1 µM (%)
Give the value, in units of %, as a plain number.

Enquiry: # return recorded cytotoxicity at 24 h, 0.1 µM for entry COC(=O)CCc1ccc(OCC(O)CNC(C)C)cc1 (stereo not shown) [Esmolol hydrochloride]
Return: 1.73

----------
Test: MTT cytotoxicity in HaCaT
Format: cell-based, human
Settings: human, HaCaT cells, 48 h, 0.01 μM, read-out: % Cytotoxicity w.r.t. untreated cells
Structures can show the parent of a compound that is named as a salt.
MEASUREMENT NAME: cytotoxicity at 48 h, 0.01 µM (%)
Only the number, expressed in %, is required.

Enquiry: // Input: COC(=O)CCc1ccc(OCC(O)CNC(C)C)cc1 (stereo not shown) [Esmolol hydrochloride] . Output its cytotoxicity at 48 h, 0.01 µM only.
Return: -19.2

----------
Assay: Toxicokinetics in miniature swine
Type: in vivo, Hanford miniature swine
Conditions: both sexes, Hanford, pig, blood, topical or ocular, 400 mg, Day 1, Group 2 swine, topical 400 mg Galnobax Gel, mean; read-out: Tmax
Counter-ions that a name gives are not always drawn.
MEASUREMENT NAME: Tmax (min)
State just the number; it will be interpreted in min.

Enquiry: For the compound COC(=O)CCc1ccc(OCC(O)CNC(C)C)cc1 (stereo not shown) [Esmolol hydrochloride] , give its reported Tmax.
Return: 18

----------
Test: MTT cytotoxicity in HaCaT
Assay type: cell-based, human
Details: human, HaCaT cells, 48 h, 1000 μM, read-out: % Cytotoxicity w.r.t. untreated cells
Where a name gives a salt, the structure may show the parent alone.
MEASUREMENT NAME: cytotoxicity at 48 h, 1000 µM (%)
Please respond with the number in % and leave the unit unwritten.

Enquiry: Could you please provide reported cytotoxicity at 48 h, 1000 µM for COC(=O)CCc1ccc(OCC(O)CNC(C)C)cc1 (stereo not shown) [Esmolol hydrochloride] ? Thanks!
Return: 18.3

----------
Assay: MTT cytotoxicity in Ea.hy926
Assay type: cell-based, human
Conditions: human, Ea.hy926 cells; Ea.hy926, 24 h, 500 μM; read-out: % Cytotoxicity w.r.t. untreated cells
Counter-ions that a name gives are not always drawn.
MEASUREMENT NAME: cytotoxicity at 24 h, 500 µM
Answer as a quantity: numeral, then unit.

Enquiry: Query cytotoxicity at 24 h, 500 µM for COC(=O)CCc1ccc(OCC(O)CNC(C)C)cc1 (stereo not shown) [Esmolol hydrochloride]
Return: 17.5%
